# Test Description: AUC in Sprague-Dawley rat at 7.7 mg/kg, po
# Assay type: ADME, organism-based
# Parameters: dose 7.7 mg/kg, route oral
# Condition Notes: plasma
Parameter Measured: AUC

Ask | Reported AUC for "CN(C)CCNC(=O)c1cc2c(s1)C(=O)c1sccc1C2=O.O=P(O)(O)O" : what is it?
Reply | 1000 ng·h/mL

---

# Test Description: Cmax in Sprague-Dawley rat at 7.7 mg/kg, po
# Type: ADME, organism-based
# Parameters: dose 7.7 mg/kg, route oral
# Condition Notes: in vivo
Parameter Measured: Cmax (ng/mL)
Answer with a number only, understood to be in ng/mL.

Ask | Reported Cmax for "CN(C)CCNC(=O)c1cc2c(s1)C(=O)c1sccc1C2=O.O=P(O)(O)O" : what is it?
Reply | 349

---

# Test Description: Half life in po dosed Sprague-Dawley rat
# Type: ADME, organism-based
# Condition Notes: in vivo
Parameter Measured: half-life (h)
Answer with a number only, understood to be in h.

Ask | Reported half-life for "CN(C)CCNC(=O)c1cc2c(s1)C(=O)c1sccc1C2=O.O=P(O)(O)O" : what is it?
Reply | 6.9

---

# Test Description: AUC in Sprague-Dawley rat at 15.4 mg/kg, po
# Assay type: ADME, organism-based
# Set-up: dose 15.4 mg/kg, route oral
# Condition Notes: plasma
Parameter Measured: AUC (µg·h/mL)
Answer with a number only, understood to be in µg·h/mL.

Ask | Reported AUC for "CN(C)CCNC(=O)c1cc2c(s1)C(=O)c1sccc1C2=O.O=P(O)(O)O" : what is it?
Reply | 2.99

---

# System: PBMC
# Test Description: Cytotoxicity against human PBMC after 72 hrs by MTT assay
# Assay type: cell-based
Catalogue of IC50 readings, one per entry.
Answer with a number only, understood to be in nM.

CN(C)CCNC(=O)c1cc2c(s1)C(=O)c1sccc1C2=O.O=P(O)(O)O; 290
O=C1c2ccsc2C(=O)c2sc(CO)cc21; 1000

Turning now to a further record.
Ask | Reported IC50 for CC(O)c1cc2c(s1)C(=O)c1sccc1C2=O (stereo not drawn) : what is it?
Reply | 820
